Value source: PubChem BioAssay AID434961

biological target: Regulator of chromosome condensation (Homo sapiens) + GTP-binding nuclear protein Ran (Homo sapiens) + Importin subunit beta-1 (Homo sapiens) (UniProt P18754+P62826+Q14974); assay: RanGTP/importin-beta interaction disruptors – biochemical, CFP-Ran/YFP-importin-beta FRET, RCC1, cell-free, primary screen (AID 434961); conditions: hits give high values, concentration not given here;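 also: 0% = DMSO wells and 100% inhibition = RanGDP control wells on each plate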
In all, about 7,700 compounds went through this assay and about 15 (0.2%) were called active. Roughly 6% stayed inconclusive and do not appear here. This excerpt belongs to a sample that is enriched for actives.
# reported inhibition; entries follow
Entry rule: numbers only, all in %.

Molecule: C[C@@H]1CCCCO[C@H](CN(C)C)[C@@H](C)CN([C@H](C)CO)C(=O)c2cc(NC(=O)Nc3ccc(F)cc3)ccc2O1
Observed: 3.67
//
Molecule: C[C@@H]1CN([C@H](C)CO)C(=O)c2cc(NS(=O)(=O)c3cn(C)cn3)ccc2O[C@H]1CN(C)C(=O)Nc1ccc2c(c1)OCO2
Observed: 0.416
//
Molecule: C[C@H]1CN([C@@H](C)CO)C(=O)Cc2cc(NS(=O)(=O)c3ccccc3)ccc2O[C@@H]1CN(C)Cc1ccc2c(c1)OCO2
Observed: 0.885
//
Molecule: Cc1noc(C)c1NC(=O)N(C)C[C@@H]1OCCCC[C@@H](C)Oc2ccc(NC(=O)Cc3ccccc3)cc2C(=O)N([C@@H](C)CO)C[C@@H]1C
Observed: 4.99
//
Molecule: C[C@@H]1CCCCO[C@@H](CN(C)Cc2ccccc2)[C@H](C)CN([C@@H](C)CO)C(=O)c2cc(NS(=O)(=O)c3ccccc3)ccc2O1
Observed: 1.85

Query: I have this compound here, C[C@H](CO)N1C[C@H](C)[C@H](CN(C)C(=O)Nc2ccccc2)Oc2ccc(NC(=O)Cc3cn(C)c4ccccc34)cc2CC1=O , and I need its recorded inhibition.
Response: 2.8

Query: Try this compound next: Cc1noc(C)c1NC(=O)N(C)C[C@@H]1Oc2ccc(NC(=O)Cc3ccccc3)cc2C(=O)N([C@@H](C)CO)C[C@H]1C
Response: 6.07

###

molecular target: Regulator of chromosome condensation (Homo sapiens) + GTP-binding nuclear protein Ran (Homo sapiens) + Importin subunit beta-1 (Homo sapiens) (UniProt P18754+P62826+Q14974); test: RanGTP/importin-beta interaction disruptors – biochemical, CFP-Ran/YFP-importin-beta FRET, RCC1, cell-free, primary screen (AID 434961); settings: hits give high values, concentration not given here;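 also: 0% = DMSO wells and 100% inhibition = RanGDP control wells on each plate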
Hit rate of the full screen: of about 7,700 compounds, about 15 (0.2%) were called active. Not shown: some 6% with an inconclusive outcome. The entries come from a sample that favours actives as a whole.
Assay Readout: inhibition (%)
Entry rule: numbers only, all in %.

Solved entries (count: 6):
Molecule: CNC[C@H]1OCCCC[C@H](C)Oc2ccc(NS(=O)(=O)c3cccs3)cc2C(=O)N([C@@H](C)CO)C[C@@H]1C
Observed: 1.28
--
Molecule: C[C@@H]1CCCCO[C@@H](CN(C)S(=O)(=O)c2cccs2)[C@H](C)CN([C@H](C)CO)C(=O)c2cc(NS(C)(=O)=O)ccc2O1
Observed: -1.23
--
Molecule: C[C@@H]1CCCCO[C@@H](CN(C)C(=O)C2CCCCC2)[C@@H](C)CN([C@@H](C)CO)C(=O)c2cc(NC(=O)Nc3ccccc3)ccc2O1
Observed: -1.24
--
Molecule: COc1ccc(NC(=O)Nc2ccc3c(c2)C(=O)N([C@H](C)CO)C[C@H](C)[C@@H](CN(C)C)O3)cc1
Observed: -2.6
--
Molecule: Cc1noc(C)c1S(=O)(=O)Nc1cccc2c1O[C@@H](CN(C)Cc1ccc(C(F)(F)F)cc1)[C@@H](C)CN([C@@H](C)CO)C2=O
Observed: -1.54
--
Molecule: COC(=O)N(C)C[C@@H]1OCc2cn(nn2)CCCC(=O)N([C@@H](C)CO)C[C@@H]1C
Observed: 2.64

Query: I have this molecule here, C[C@@H]1CCCCO[C@@H](CN(C)C(=O)CCC(F)(F)F)[C@H](C)CN([C@@H](C)CO)C(=O)c2cc(NS(=O)(=O)c3ccccc3)ccc2O1 , and I need its recorded inhibition.
Response: -3.22

Query: Try this molecule next: C[C@H](CO)N1C[C@H](C)[C@H](CN(C)C)Oc2c(NC(=O)Nc3ccc(C(F)(F)F)cc3)cccc2C1=O
Response: -2.27

Query: Try this molecule next: C[C@@H]1CCCCO[C@@H](CN(C)C(=O)CCC(F)(F)F)[C@@H](C)CN([C@@H](C)CO)C(=O)c2cc(NS(=O)(=O)c3cccs3)ccc2O1
Response: 5.99

Query: Try this molecule next: COC(=O)N(C)C[C@H]1OCc2cn(nn2)CCCC(=O)N([C@H](C)CO)C[C@@H]1C
Response: -1.56

Query: Try this molecule next: Cc1noc(C)c1NC(=O)N(C)C[C@@H]1Oc2c(NS(C)(=O)=O)cccc2C(=O)N([C@H](C)CO)C[C@H]1C
Response: -0.0899
